Test system: A549 NSCLC
Experiment: NCI tumour cell line growth inhibition, 48 h
In this section, each of the molecules is paired with its reported TGI.

molecule	TGI
Cc1ccc2nc(-c3ccc(NC(=O)c4ccc(N)cc4)c(S(=O)(=O)O)c3)sc2c1	> 100 µM
N/C(=N\N=C\c1cc(I)cc(I)c1O)NO	> 100 µM
O=C(O)C1CCCCN1C(=O)Cc1c[nH]c2ccccc12 (stereo not drawn)	> 100 µM

====

System: HOP-92 NSCLC
Experiment: NCI tumour cell line growth inhibition, 48 h

compound	TGI
COc1cc2c(cc1O)CN1CCC23C=C[C@@H](O)CC13 (stereo partly specified)	> 100 µM
COc1ccc(NC(=O)CC(=O)NNC(Sc2ccccc2)c2cc(N=Nc3ccc(Br)cc3)ccc2O)cc1 (stereo unspecified)	> 10 µM
C[C@@H]1OC2(O)[C@H]3CCCN3S(=O)(=O)CCN2C1=O (stereo partly specified)	> 100 µM
CC[C@]1(O)CC2CN(CCc3c([nH]c4ccccc34)[C@@](C(=O)OC)(c3cc4c(cc3OC)N(C=O)[C@H]3[C@@](O)(C(=O)OC)[C@H](OC(C)=O)[C@]5(CC)C=CCN6CC[C@]43[C@@H]65)C2)C1 (stereo partly specified)	> 50 µM
CC(=O)OCC1OC(OCc2ccccc2)C(Br)C(OC(C)=O)C1OC(C)=O (stereo unspecified)	> 100 µM
O=C(c1ccccc1)c1ccc2c(c1)nc1n2C(c2c(F)cccc2F)SC1 (stereo unspecified)	> 100 µM
CN(C)C(=O)OC1=CC2CCC(C1)N2C (stereo unspecified)	> 100 µM
O=C1NC(=S)NC(=O)C1=Cc1ccc(-c2ccccc2)cc1	> 100 µM
COc1ccc2c(c1)[n+](=O)c(C(=O)C/C(=N/NC(=O)C[N+](C)(C)C)C(=O)Nc1cccc(C)c1C)c(C)n2O	> 100 µM
NC(Cc1c[nH]c2ccc(F)cc12)C(=O)O (stereo unspecified)	> 2500 µM
CN(C)C(=O)NC(=S)N(C)C	> 100 µM
